The following compounds are listed with their measured microsomal CLint at 1 uM values.
Assay: Metabolic stability in human hepatic microsome
Format: in vitro ADME
Details: human, microsomes, pH 7.4, CL NADPH(+)
Positions of bridges follow the written chain, without caps; N, C: chain ends. Non-standard residues stand in square brackets, D forms with d. Residues, ends and D or L forms follow the SMILES beside them. *: point of attachment. NMeF = CN[C@@H](Cc1ccccc1)C(=O)O; NMeI = CC[C@H](C)[C@H](NC)C(=O)O; NMeL = CN[C@@H](CC(C)C)C(=O)O; NMeA = CN[C@@H](C)C(=O)O; Piperidide = C1CCN(*)CC1
Express the result in µL/min/mg but write the number alone.

{"Compound": "CC[C@H](C)[C@H](NC(=O)[C@@H]1CC(=O)N[C@@H](C)C(=O)N[C@@H]([C@@H](C)CC)C(=O)N(C)[C@@H](C)C(=O)N(C)[C@@H](Cc2ccccc2)C(=O)N[C@@H]([C@@H](C)O)C(=O)N(C)[C@@H](Cc2ccccc2)C(=O)N[C@@H](CC(C)C)C(=O)N2CCC[C@H]2C(=O)N1)C(=O)N1CCCCC1 [DP-669] (AI[NMeA][NMeF]T[NMeF]LPDI-Piperidide; lactam N-9)", "microsomal CLint at 1 uM [µL/min/mg]": 54}

Alright, here's another compound for you.
Prompt line: What value of microsomal CLint at 1 uM has been reported for the following compound? CC[C@H](C)[C@H]1C(=O)N[C@H](C(=O)N(C)[C@@H](Cc2ccccc2)C(=O)N[C@@H](C)C(=O)N2CCCCC2)CC(=O)N[C@@H](C)C(=O)N(C)[C@@H](Cc2ccccc2)C(=O)N(C)[C@@H](CC(C)C)C(=O)N[C@@H]([C@@H](C)O)C(=O)N(C)[C@@H](C)C(=O)N[C@@H](C(C)C)C(=O)N(C)[C@@H](CC(C)C)C(=O)N1C [DP-305] (A[NMeF][NMeL]T[NMeA]V[NMeL][NMeI]D[NMeF]A-Piperidide; lactam N-9)
Response line: 700

====

Experiment: Metabolic stability in human hepatic microsome
Assay type: in vitro ADME
Details: microsomes, pH 7.4; human hepatic microsome, NADPH(+); read-out: CL NADPH(+)
Positions of bridges follow the written chain, without caps; N, C: chain ends. Non-standard residues stand in square brackets, D forms with d. Residues, ends and D or L forms follow the SMILES beside them. *: point of attachment. NMeF = CN[C@@H](Cc1ccccc1)C(=O)O; Aoc(2) = CCCCCC[C@H](N)C(=O)O; NMeL = CN[C@@H](CC(C)C)C(=O)O; NMeV = CN[C@H](C(=O)O)C(C)C; NMeS = CN[C@@H](CO)C(=O)O; Piperidide = C1CCN(*)CC1; dNMeA = CN[C@H](C)C(=O)O; β3hA = C[C@H](N)CC(=O)O; Abu = CC[C@H](N)C(=O)O; Sar = CNCC(=O)O; tBu = CC(C)(C)*
The following molecules are listed with their measured microsomal CLint at 1 uM values.
Report field: quantity (unit follows the number).

{"Molecule": "CC(C)C[C@H]1C(=O)N[C@@H]([C@@H](C)O)C(=O)N(C)[C@@H](Cc2ccccc2)C(=O)N(C)[C@@H](CC(C)C)C(=O)NCC(=O)N(C)[C@@H](C(C)C)C(=O)N[C@@H](Cc2ccccc2)C(=O)N[C@H](C(=O)N2CCCCC2)CC(=O)N(C)[C@H](C)C(=O)N[C@@H](COC(C)(C)C)C(=O)N1C [DP-260] ([dNMeA]S(tBu)[NMeL]T[NMeF][NMeL]G[NMeV]FD-Piperidide; lactam N-10)", "microsomal CLint at 1 uM": "259 µL/min/mg"}

Alright, here's another molecule for you.
Prompt line: What value of microsomal CLint at 1 uM has been reported for the following molecule? CCCCCC[C@@H]1NC(=O)[C@H](CO)N(C)C(=O)C[C@H](C)NC(=O)[C@H](CC(C)C)N(C)C(=O)[C@H](CC(C)C)N(C)C(=O)[C@@H](CC(C)C)NC(=O)[C@H](CC)NC(=O)[C@H](CC(C)C)N(C)C(=O)[C@H](C(C)C)NC(=O)[C@H](CC(C)C)N(C)C(=O)CN(C)C1=O [DP-648] (cyclo([Abu][dL][NMeL][NMeL][β3hA][NMeS][Aoc(2)][Sar][NMeL]V[NMeL]))
Response line: 109 µL/min/mg

====

Experiment: PAMPA (parallel artificial membrane permeability assay)
Assay type: in vitro ADME
Settings: PAMPA, pH 6.5
Starred links: 1 amine or outer side, 2 acyl side, 3 side chain; linkers in the order of their positions; H or OH if unused. Positions of bridges follow the written chain, without caps; N, C: chain ends. Non-standard residues stand in square brackets, D forms with d. Residues, ends and D or L forms follow the SMILES beside them. ξ: configuration not given here. *: point of attachment. NMeF = CN[C@@H](Cc1ccccc1)C(=O)O; NMeβAla = CN(CCC(=O)[*:2])[*:1]; NMeL = CN[C@@H](CC(C)C)C(=O)O; NMeV = CN[C@H](C(=O)O)C(C)C; NMeA = CN[C@@H](C)C(=O)O; Piperidide = C1CCN(*)CC1; dNMeA = CN[C@H](C)C(=O)O; β3hA = C[C@H](N)CC(=O)O; ξD = NC(CC(=O)O)C(=O)O; ξT = CC(O)C(N)C(=O)O; tBu = CC(C)(C)*
Experimental readout: Papp at 18 hours, 50 µM (×10⁻⁶ cm/s)
Express the result in ×10⁻⁶ cm/s but write the number alone.

Here's what some known entries look like.
{"Compound": "CC(C)C[C@H]1C(=O)N(C)[C@@H](CC(C)C)C(=O)NC(C(C)O)C(=O)N(C)[C@@H](Cc2ccccc2)C(=O)NCC(=O)N(C)[C@@H](C(C)C)C(=O)N[C@@H](Cc2ccccc2)C(=O)NC(C(=O)N2CCCCC2)CC(=O)N(C)CCC(=O)N[C@@H](COC(C)(C)C)C(=O)N1C (stereo partly drawn) [DP-50] ([NMeβAla]S(tBu)[NMeL][NMeL][ξT][NMeF]G[NMeV]F[ξD]-Piperidide; lactam N-10)", "Experimental readout": "Papp at 18 hours, 50 µM", "Numeric value": 35}
{"Compound": "CC[C@H](C)[C@@H]1NC(=O)[C@@H](C(C)C)NC(=O)C[C@@H](C(=O)N(C)[C@@H](Cc2ccccc2)C(=O)N[C@@H](C)C(=O)N2CCCCC2)NC(=O)[C@H](Cc2ccccc2)N(C)C(=O)[C@H](C)NC(=O)[C@H](CC(C)C)N(C)C(=O)[C@H](C)N(C)C(=O)[C@H]([C@@H](C)O)NC(=O)[C@H](C)N(C)C(=O)[C@H](C(C)C)N(C)C1=O [DP-294] ([dV]I[NMeV][NMeA]T[NMeA][NMeL]A[NMeF]D[NMeF]A-Piperidide; lactam N-10)", "Experimental readout": "Papp at 18 hours, 50 µM", "Numeric value": 17}

Alright, here's another compound for you.
Prompt line: What value of Papp at 18 hours, 50 µM has been reported for the following compound? CC(C)C[C@@H]1NC(=O)[C@H]([C@@H](C)O)NC(=O)[C@@H]2CCCN2C(=O)[C@H](Cc2ccccc2)NC(=O)[C@H](COC(C)(C)C)NC(=O)[C@H](CC(C)C)N(C)C(=O)[C@H](Cc2ccccc2)NC(=O)[C@@H](C)N(C)C(=O)C[C@H](C)NC(=O)CNC(=O)[C@H](C)N(C)C(=O)[C@H](C)N(C)C1=O [DP-752] (cyclo(F[NMeL]S(tBu)FPTL[NMeA][NMeA]G[β3hA][dNMeA]))
Response line: 6.2

====

Assay: PAMPA (parallel artificial membrane permeability assay)
Type: in vitro ADME
Details: PAMPA; membrane permeation rate (Pe); 50 mM MOPSO buffer pH 6.5 with 5.0% glycocholic acid, 37° C., 18 hours; read-out: iPAMPA Pe
Starred links: 1 amine or outer side, 2 acyl side, 3 side chain; linkers in the order of their positions; H or OH if unused. Positions of bridges follow the written chain, without caps; N, C: chain ends. Non-standard residues stand in square brackets, D forms with d. Residues, ends and D or L forms follow the SMILES beside them. *: point of attachment. Met(O2) = CS(=O)(=O)CC[C@H](N)C(=O)O; NMeF = CN[C@@H](Cc1ccccc1)C(=O)O; NMeGABA = CN(CCCC(=O)[*:2])[*:1]; NMeβAla = CN(CCC(=O)[*:2])[*:1]; NMeL = CN[C@@H](CC(C)C)C(=O)O; NMeV = CN[C@H](C(=O)O)C(C)C; NMeA = CN[C@@H](C)C(=O)O; Piperidide = C1CCN(*)CC1; β3hA = C[C@H](N)CC(=O)O; tBu = CC(C)(C)*
The following molecules are listed with their measured Papp at 18 hours, 50 µM values.

Here's what some known entries look like.
{"Molecule": "CC(C)C[C@H]1C(=O)N(C)[C@@H](Cc2ccccc2)C(=O)N[C@@H](C)CC(=O)N[C@H](C(C)C)C(=O)N[C@@H](C)C(=O)N[C@@H]([C@@H](C)O)C(=O)N(C)[C@@H](C)C(=O)N[C@@H](Cc2ccccc2)C(=O)N1C [DP-796] (cyclo(AT[NMeA]F[NMeL][NMeF][β3hA][dV]))", "Experimental readout": "Papp at 18 hours, 50 µM", "Result": "20 ×10⁻⁶ cm/s"}
{"Molecule": "CC(C)C[C@@H]1NC(=O)[C@H](CC(C)C)N(C)C(=O)[C@H](CC(C)C)N(C)C(=O)[C@H](CC(C)C)NC(=O)[C@H](Cc2ccccc2)N(C)C(=O)[C@H](CCS(C)(=O)=O)NC(=O)[C@H](CC(C)C)N(C)C(=O)[C@H](Cc2ccccc2)NC(=O)[C@H](C)NC(=O)C[C@@H](C(=O)N(C)[C@@H](Cc2ccccc2)C(=O)N[C@@H](C)C(=O)N2CCCCC2)NC1=O [DP-607] (AF[NMeL][Met(O2)][NMeF]L[NMeL][NMeL]LD[NMeF]A-Piperidide; lactam N-10)", "Experimental readout": "Papp at 18 hours, 50 µM", "Result": "1.2 ×10⁻⁶ cm/s"}

Prompt line: What value of Papp at 18 hours, 50 µM has been reported for the following molecule? CC[C@H](C)[C@@H]1NC(=O)[C@H](CC(C)C)N(C)C(=O)[C@H](C(C)C)N(C)C(=O)CCN(C)C(=O)C[C@@H](C(=O)N(C)[C@@H](Cc2ccccc2)C(=O)N[C@@H](C)C(=O)N2CCCCC2)NC(=O)[C@H]([C@@H](C)O)NC(=O)[C@H](Cc2ccccc2)N(C)C(=O)[C@H](C)N(C)C(=O)[C@H](CC(C)C)NC(=O)[C@H](C(C)C)N(C)C1=O [DP-447] ([NMeβAla][NMeV][NMeL]I[NMeV]L[NMeA][NMeF]TD[NMeF]A-Piperidide; lactam N-10)
Response line: 33 ×10⁻⁶ cm/s

Prompt line: What value of Papp at 18 hours, 50 µM has been reported for the following molecule? CC(C)C[C@H]1C(=O)N(C)[C@@H](Cc2ccccc2)C(=O)N(C)[C@@H](CC(C)C)C(=O)N[C@@H]([C@@H](C)O)C(=O)N[C@H](C(=O)N2CCCCC2)CC(=O)N[C@H](C(C)C)C(=O)N(C)[C@@H](C)C(=O)N(C)[C@@H](CC(C)C)C(=O)N[C@@H](CCS(C)(=O)=O)C(=O)N(C)[C@@H](Cc2ccccc2)C(=O)N[C@@H](Cc2ccccc2)C(=O)N1C [DP-621] ([dV][NMeA][NMeL][Met(O2)][NMeF]F[NMeL][NMeF][NMeL]TD-Piperidide; lactam N-11)
Response line: 21 ×10⁻⁶ cm/s

Prompt line: What value of Papp at 18 hours, 50 µM has been reported for the following molecule? CC(C)C[C@H]1C(=O)N[C@H](C(=O)N2CCCCC2)CC(=O)N(C)CCCC(=O)N(C)[C@@H](Cc2ccccc2)C(=O)N[C@@H]([C@@H](C)O)C(=O)N(C)[C@@H](C)C(=O)N[C@@H](COC(C)(C)C)C(=O)N1C [DP-680] ([NMeGABA][NMeF]T[NMeA]S(tBu)[NMeL]D-Piperidide; lactam N-7)
Response line: 15 ×10⁻⁶ cm/s
